# Protocol Details: soluble fraction after stress (log2 fold change); higher = more stays soluble; pooled small domains, quantitative proteomics
# Cond: stress: pH 4
Readout Type: soluble fraction (log2)

In [3]: df
Out[3]:
                             entry_sequence  quantitative_readout
0  HMKDDLTWSEGLMPNVVGMGLRDAMFMLENSGLRVNYSGRGKVTRQSPQPGVRIKRGATVAIELRL                0.0273
1  HMKTGNIVMVNLGWKGKYYSIKMFFPQVSKPSRKDVQDQIEKIYPGGKLYTFVVSNYEPGEPMLHA                -0.164
2  HMAVDPSVLTRRERQALAWIARGLSNKEVARGLNLAESTVKVHVQSILRKLNLTSRVQAAVYAIEHGIDK               -0.0198
3  HMNSHKIIDRLNQMITEKDLSEEMPAITEAFKNNERSAEDLKKYVAENLSKKLNAEEREKFVSLILQYRN                -0.338
4  HMGAITGLQSRVAFLKGQGTITDAEAKTAMAFLPDPTDSKEVKIAKIGQAREYIMSLIENRA               -0.0578
